Cited source for all entries: patent US11111233B2

- target.or.test.system: EGFR [L858R/T790M] (Homo sapiens (Human), UniProt P00533, L858R/T790M)
- Sequence (P00533 25-1210 T790M/L858R): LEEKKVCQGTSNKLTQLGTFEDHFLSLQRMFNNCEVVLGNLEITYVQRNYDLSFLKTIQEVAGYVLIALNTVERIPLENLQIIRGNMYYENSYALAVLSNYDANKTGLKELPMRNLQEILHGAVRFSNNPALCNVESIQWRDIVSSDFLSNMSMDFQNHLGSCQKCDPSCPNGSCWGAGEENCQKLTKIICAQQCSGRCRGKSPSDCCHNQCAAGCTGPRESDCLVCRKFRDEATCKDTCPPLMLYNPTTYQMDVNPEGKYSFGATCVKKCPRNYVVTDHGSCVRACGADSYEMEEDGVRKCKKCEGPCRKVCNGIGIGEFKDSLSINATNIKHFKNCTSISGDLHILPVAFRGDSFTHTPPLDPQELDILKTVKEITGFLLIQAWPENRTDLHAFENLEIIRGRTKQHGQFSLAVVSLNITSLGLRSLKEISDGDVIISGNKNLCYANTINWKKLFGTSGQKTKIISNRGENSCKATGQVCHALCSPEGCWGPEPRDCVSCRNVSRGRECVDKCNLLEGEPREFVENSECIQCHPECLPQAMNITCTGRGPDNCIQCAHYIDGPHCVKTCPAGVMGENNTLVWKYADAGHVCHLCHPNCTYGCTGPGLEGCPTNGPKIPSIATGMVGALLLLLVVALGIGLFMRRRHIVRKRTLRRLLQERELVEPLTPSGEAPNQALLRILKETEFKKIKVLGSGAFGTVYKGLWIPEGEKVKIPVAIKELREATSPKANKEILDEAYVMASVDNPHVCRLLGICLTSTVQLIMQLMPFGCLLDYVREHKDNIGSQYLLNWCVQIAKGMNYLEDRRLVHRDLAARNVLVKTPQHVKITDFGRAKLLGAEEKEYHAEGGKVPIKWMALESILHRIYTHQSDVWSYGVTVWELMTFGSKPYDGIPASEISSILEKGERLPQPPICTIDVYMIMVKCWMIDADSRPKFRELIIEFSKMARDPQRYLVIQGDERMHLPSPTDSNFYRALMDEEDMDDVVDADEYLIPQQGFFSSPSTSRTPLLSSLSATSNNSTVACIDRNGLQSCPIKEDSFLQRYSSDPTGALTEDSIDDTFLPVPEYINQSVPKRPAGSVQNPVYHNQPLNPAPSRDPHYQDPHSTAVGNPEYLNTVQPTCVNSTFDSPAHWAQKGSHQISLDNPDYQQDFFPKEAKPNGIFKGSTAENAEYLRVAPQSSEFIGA
- run.description: Kinase inhibition assay (HTRF), EGFR [L858R/T790M]
- Format: biochemical
- condition.details: HTRF Kinase TK kit, 10 min pre-incubation, 20 min reaction; read-out: EGFR(L858R/T790M) IC50
pIC50: −log10 of the molar value.
Documented pIC50 across a set of compounds

Example entries and their recorded answers appear below.
• C=CC(=O)Nc1cc(Nc2nccc(-c3cnc4nc(C)n(C(C)C)c4c3)n2)c(OC)cc1N(C)CCN(C)C = 7.30 to 9.00
• C=CC(=O)Nc1cc(Nc2nccc(-c3cc(F)c4nc(COC)n(C(C)C)c4c3)n2)c(OC)cc1N(C)CCN(C)C = > 9.00

Look up pIC50: `C=CC(=O)Nc1cc(Nc2nccc(-c3ccc4ncsc4c3)n2)c(OC)cc1N(C)CCN(C)C`
> 9.00

Same question for `C=CC(=O)Nc1cc(Nc2nccc(-c3cc(F)c4nc(OCC)n(C(C)C)c4c3)n2)c(OC)cc1N(C)CCN(C)C` please.
> 9.00

Same question for `[2H]C(C)(C)n1c(C)nc2ccc(-c3ccnc(Nc4cc(NC(=O)C=C)c(N(C)CCN(C)C)cc4OC)n3)cc21` please.
7.30 to 9.00

Same question for `C=CC(=O)Nc1cc(Nc2nccc(-c3cc(F)c4nc(SC)n(C(C)C)c4c3)n2)c(OC)cc1N(C)CCN(C)C` please.
> 9.00

Same question for `C=CC(=O)Nc1cc(Nc2nccc(-c3cc(F)c4nc(C)cn4c3)n2)c(OC)cc1N(C)CCN(C)C` please.
7.30 to 9.00

###

- target.or.test.system: UniProt P00533
- run.description: Kinase inhibition assay (HTRF), WT EGFR
- Assay type: biochemical
- condition.details: HTRF Kinase TK kit, 10 min pre-incubation, 20 min reaction
pIC50: −log10 of the molar value.
Documented pIC50 across a set of molecules

Example entries and their recorded answers appear below.
• [2H]C(C)(C)n1c(C)nc2ccc(-c3ccnc(Nc4cc(NC(=O)C=C)c(N(C)CCN(C)C)cc4OC)n3)cc21 = 7.30 to 9.00
• C=CC(=O)Nc1cc(Nc2ncc(C#N)c(-c3cc(F)c4nc(C)n(C(C)C)c4c3)n2)c(OC)cc1N(C)CCN(C)C = 7.30 to 9.00
• C=CC(=O)Nc1cc(Nc2nccc(-c3ccc4oc(=O)n(C)c4c3)n2)c(OC)cc1N(C)CCN(C)C = 7.30 to 9.00

Look up pIC50: `C=CC(=O)Nc1cc(Nc2nccc(-c3cc(F)c4nc(COC)n(C(C)C)c4c3)n2)c(OC)cc1N(C)CCN(C)C`
7.30 to 9.00

Same question for `C=CC(=O)Nc1cc(Nc2nccc(-c3cc(F)c4nc(C(F)F)n(C(C)C)c4c3)n2)c(OC)cc1N(C)CCN(C)C` please.
7.30 to 9.00

Same question for `C=CC(=O)Nc1cc(Nc2nccc(-c3cc(F)c4[nH]ncc4c3)n2)c(OC)cc1N(C)CCN(C)C` please.
7.30 to 9.00

Same question for `C=CC(=O)Nc1cc(Nc2ncc(F)c(-c3cc(F)c4nc(C)c(C(=C)C)n4c3)n2)c(OC)cc1N(C)CCN(C)C` please.
7.30 to 9.00
